system: Rattus norvegicus; experiment: In vivo effect on mean blood pressure of anesthetized rats following 3 mg/kg i.v.; type: functional; settings: route intravenous
// returns 0 (no) unless Change is strictly below -10%, in which case 1 (yes)

Here's what some known entries look like.
COc1cc2c(cc1OC)C(=O)N(C1CCCN(CCCOc3ccc(Cl)cc3)C1)CC2.Cl (stereo not given)    1 (yes)
COc1ccc(CCN(C)CCCN2CCc3cc(OC)c(OC)cc3CC2=O)cc1OC.Cl [ZATEBRADINE HYDROCHLORIDE]    0 (no)
COc1ccc(C(=O)NC2CCCN(CCCOc3ccc4c(c3)OCO4)C2)cc1OC.Cl (stereo not given)    1 (yes)
COc1cc2c(cc1OC)CN(C1CCCN(CCCOc3ccc4c(c3)OCO4)C1)CC2.Cl (stereo not given)    0 (no)
COc1cccc(OCCCN2CCCC(N3CCc4cc(OC)c(OC)cc4C3=O)C2)c1.Cl (stereo not given)    1 (yes)
COc1ccc(OCCCN2CCCC(N3CCc4cc(OC)c(OC)cc4C3=O)C2)cc1.Cl (stereo not given)    1 (yes)
COc1cc2c(cc1OC)C(=O)N(C1CCCN(CCCOc3ccc(C)cc3)C1)CC2.Cl (stereo not given)    1 (yes)
COc1cc2c(cc1OC)C(=O)N(C1CCCN(CCCOc3ccc(C#N)cc3)C1)CC2.Cl (stereo not given)    0 (no)

-- ask Answer whether the molecule COc1cc2c(cc1OC)C(=O)N(C1CCCN(CCCOc3ccc(F)cc3)C1)CC2.Cl (stereo not given) has Change strictly less than -10%
-- reply 1 (yes)

-- ask Answer whether the molecule COc1cc2c(cc1OC)C(=O)N(C1CCCN(CCCOc3ccc4c(c3)OCO4)C1)CC2.Cl (stereo not given) has Change strictly less than -10%
-- reply 1 (yes)

-- ask Answer whether the molecule COc1cc2c(cc1OC)C(=O)N(C1CCCN(CCCOc3ccc([N+](=O)[O-])cc3)C1)CC2.Cl (stereo not given) has Change strictly less than -10%
-- reply 0 (no)

-- ask Answer whether the molecule COc1cc2c(cc1OC)C(=O)N([C@H]1CCCN(CCCOc3ccc4c(c3)OCO4)C1)CC2.Cl has Change strictly less than -10%
-- reply 1 (yes)

-- ask Answer whether the molecule COc1cc2c(cc1OC)C(=O)N(C1CCCN(CCCOc3ccccc3)C1)CC2.Cl (stereo not given) has Change strictly less than -10%
-- reply 0 (no)

-- ask Answer whether the molecule COc1ccc(OCCCN2CCCC(N3CCc4cc(OC)c(OC)cc4C3=O)C2)cc1OC.Cl (stereo not given) has Change strictly less than -10%
-- reply 1 (yes)
